Hey, just so you know, these numbers are from patent US10214518B2.

System: human platelet-rich plasma (PRP)
Experiment: Human platelet aggregation inhibition test (ADP-induced, PRP)
Type: cell-based
Details: inhibition of aggregation induced by 1x10^-5 M ADP in human PRP
Answer each item with its documented pIC50.
Answers are plain numbers, as −log10 of the molar value.

Guide cases for pIC50, answers given:
CSc1c(-c2ccc(C)s2)c(-c2ccccc2)nn1C[C@H]1CC[C@@H](COCC(=O)O)CC1 [Compound 111] : 7.55
N#CCSc1c(-c2ccccc2)c(-c2ccccc2)nn1C[C@H]1CC[C@@H](COCC(=O)O)CC1 [Compound 184] : 7.70
CSc1c(-c2cncc(F)c2)c(-c2ccccc2)nn1C[C@H]1CC[C@@H](COCC(=O)O)CC1 [Compound 135] : 6.66

pIC50 in this record for O=C(O)COC[C@H]1CC[C@@H](Cn2nc(-c3ccccc3)c(-c3ccccc3)c2SCCO)CC1 [Compound 146] : 7.15

====

Biological target: human prostacyclin (PGI2) receptor (Homo sapiens (Human))
Sequence (P43119 whole entry): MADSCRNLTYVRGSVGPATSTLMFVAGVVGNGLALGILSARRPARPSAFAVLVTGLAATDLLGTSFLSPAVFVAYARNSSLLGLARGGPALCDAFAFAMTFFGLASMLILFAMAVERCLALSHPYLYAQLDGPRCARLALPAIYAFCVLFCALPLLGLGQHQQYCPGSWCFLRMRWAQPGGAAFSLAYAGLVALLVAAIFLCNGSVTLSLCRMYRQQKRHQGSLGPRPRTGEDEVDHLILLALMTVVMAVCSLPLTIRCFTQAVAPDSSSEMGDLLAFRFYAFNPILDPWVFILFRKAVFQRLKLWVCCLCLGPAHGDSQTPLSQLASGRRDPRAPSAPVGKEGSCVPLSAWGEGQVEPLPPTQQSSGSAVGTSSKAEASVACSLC
Experiment: HTRF assay for direct cAMP measurement
Format: cell-based
Conditions: recombinant CHO-K1 cells stably transfected with human prostacyclin receptor; cAMP increase
value.kind: EC50 (nM)
Numbers only, in nM.

Guide cases for EC50, answers given:
CCSc1c(-c2cccc(OC)c2F)c(-c2ccccc2)nn1C[C@H]1CC[C@@H](COCC(=O)O)CC1 [Compound 90] : 7
COc1cccc(-c2c(-c3ccccc3)nn(C[C@H]3CC[C@@H](COCC(=O)O)CC3)c2SCCO)c1 [Compound 198] : 2
N#CCSc1c(-c2ccccc2)c(-c2ccccc2)nn1C[C@H]1CC[C@@H](COCC(=O)O)CC1 [Compound 184] : 11

EC50 in this record for CSc1c(-c2ccc(C)s2)c(-c2ccccc2)nn1C[C@H]1CC[C@@H](COCC(=O)O)CC1 [Compound 111] : 16
